relative viability overview
- System: BEN
- Method Notes: relative viability (nuclei count vs DMSO), 5 days (fraction); higher = more cells survive
- Measurement Context: first compound 0.08 µM
Attribute Measured: relative viability

* Oc1nc(-c2ccc(C(F)(F)F)cc2)nc2c1CSCC2 [XAV939] + COc1cccc2cc(-c3nc([C@H]4CC[C@H](C(=O)O)CC4)n4ncnc(N)c34)[nH]c12 [OSI-027] (partner 0.5 µM) | 0.28
* C=C1C(=O)O[C@@H](CCCCCCCC)[C@@H]1C(=O)O [C-75] + C[C@]1(O)C[C@@H](c2nc(-c3ccc4ccc(-c5ccccc5)nc4c3)c3c(N)nccn32)C1 [Linsitinib] (partner 1 µM) | 0.847
* C=C1C(=O)O[C@@H](CCCCCCCC)[C@@H]1C(=O)O [C-75] + Cc1cc(Nc2cc(N3CCN(C)CC3)nc(Sc3ccc(NC(=O)C4CC4)cc3)n2)n[nH]1 [Tozasertib] (partner 0.1 µM) | 0.494
* C=C1C(=O)O[C@@H](CCCCCCCC)[C@@H]1C(=O)O [C-75] + Nc1ncn([C@H]2C[C@H](O)[C@@H](CO)O2)c(=O)n1 [Decitabine] (partner 2 µM) | 0.764

###

- Test system: NCI-H23
- Method Notes: relative viability (nuclei count vs DMSO), 5 days (fraction); higher = more cells survive
- Measurement Context: first compound 2.53 µM
relative viability overview
Attribute Measured: relative viability

- Oc1nc(-c2ccc(C(F)(F)F)cc2)nc2c1CSCC2 [XAV939] + COc1cccc2cc(-c3nc([C@H]4CC[C@H](C(=O)O)CC4)n4ncnc(N)c34)[nH]c12 [OSI-027] (partner 0.5 µM): 0.432
- C=C1C(=O)O[C@@H](CCCCCCCC)[C@@H]1C(=O)O [C-75] + C[C@]1(O)C[C@@H](c2nc(-c3ccc4ccc(-c5ccccc5)nc4c3)c3c(N)nccn32)C1 [Linsitinib] (partner 1 µM): 0.557
- Oc1nc(-c2ccc(C(F)(F)F)cc2)nc2c1CSCC2 [XAV939] + CC(=O)c1c(C)c2cnc(Nc3ccc(N4CCNCC4)cn3)nc2n(C2CCCC2)c1=O [Palbociclib] (partner 0.5 µM): 0.386
- Oc1nc(-c2ccc(C(F)(F)F)cc2)nc2c1CSCC2 [XAV939] + CC1(C)CCC(c2ccc(Cl)cc2)=C(CN2CCN(c3ccc(C(=O)NS(=O)(=O)c4ccc(N[C@H](CCN5CCOCC5)CSc5ccccc5)c(S(=O)(=O)C(F)(F)F)c4)cc3)CC2)C1 [Navitoclax] (partner 0.5 µM): 0.755
- Oc1nc(-c2ccc(C(F)(F)F)cc2)nc2c1CSCC2 [XAV939] + C[C@@H](Oc1cc(-c2cnn(C3CCNCC3)c2)cnc1N)c1c(Cl)ccc(F)c1Cl [Crizotinib] (partner 1 µM): 0.426
- C=C1C(=O)O[C@@H](CCCCCCCC)[C@@H]1C(=O)O [C-75] + Nc1ncn([C@H]2C[C@H](O)[C@@H](CO)O2)c(=O)n1 [Decitabine] (partner 2 µM): 0.249
- Oc1nc(-c2ccc(C(F)(F)F)cc2)nc2c1CSCC2 [XAV939] + Cc1cc(Nc2cc(N3CCN(C)CC3)nc(Sc3ccc(NC(=O)C4CC4)cc3)n2)n[nH]1 [Tozasertib] (partner 0.1 µM): 0.357
- C=C1C(=O)O[C@@H](CCCCCCCC)[C@@H]1C(=O)O [C-75] + Cc1nc(NC(=O)N2CCC[C@H]2C(N)=O)sc1-c1ccnc(C(C)(C)C(F)(F)F)c1 [Alpelisib] (partner 2 µM): 0.618
- Oc1nc(-c2ccc(C(F)(F)F)cc2)nc2c1CSCC2 [XAV939] + Cc1nc(Nc2ncc(C(=O)Nc3c(C)cccc3Cl)s2)cc(N2CCN(CCO)CC2)n1 [Dasatinib] (partner 0.075 µM): 0.722
- Oc1nc(-c2ccc(C(F)(F)F)cc2)nc2c1CSCC2 [XAV939] + NC(=O)Nc1cc(-c2cccc(F)c2)sc1C(=O)N[C@H]1CCCNC1 [AZD7762] (partner 0.2 µM): 0.238
